Biological target: Histamine H1 receptor (Homo sapiens, UniProt P35367)
Sequence (P35367 whole entry): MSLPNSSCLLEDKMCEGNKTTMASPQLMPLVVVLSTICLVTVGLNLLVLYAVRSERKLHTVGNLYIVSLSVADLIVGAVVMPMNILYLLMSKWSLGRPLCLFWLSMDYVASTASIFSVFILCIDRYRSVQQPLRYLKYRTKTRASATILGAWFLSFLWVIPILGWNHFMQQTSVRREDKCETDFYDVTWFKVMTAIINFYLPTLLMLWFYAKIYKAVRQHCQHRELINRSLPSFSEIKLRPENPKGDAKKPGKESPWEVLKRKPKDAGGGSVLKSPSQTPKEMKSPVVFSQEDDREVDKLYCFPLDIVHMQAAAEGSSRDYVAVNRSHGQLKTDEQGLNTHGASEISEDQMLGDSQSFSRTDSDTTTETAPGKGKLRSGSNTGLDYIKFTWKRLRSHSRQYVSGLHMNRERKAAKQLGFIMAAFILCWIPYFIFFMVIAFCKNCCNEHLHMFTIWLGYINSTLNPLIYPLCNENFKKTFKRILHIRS
Test: Selectivity interaction (Histamine H1 receptor assay, human recombinant ) EUB0000877a HRH1

{"smi": "CCC(=O)N1CC[C@H](Nc2ncnc3c2CN(c2cnc(OC)c(C(F)(F)F)c2)CC3)C1", "IC50": "> 30 µM"}

---

Biological target: cAMP-dependent protein kinase catalytic subunit alpha (Homo sapiens, UniProt P17612)
Assay: Selectivity interaction (Kinase panel (radiometric inhibition assay)) EUB0000651a PRKACA
pIC50: −log10 of the molar value.

{"compound": "COc1cc(C)c(Sc2cnc(NC(=O)c3ccc(CNC(C)C(C)(C)C)cc3)s2)cc1C(=O)N1CCN(C(C)=O)CC1 (stereo unspecified)", "test_system": "cAMP-dependent protein kinase catalytic subunit alpha (Homo sapiens, UniProt P17612)", "pIC50": "< 4.30"}

---

Target: Cyclin-dependent kinase 1/cyclin B (Homo sapiens)
Experiment: Selectivity interaction (Kinase panel (Enzyme activity assay)) EUB0000612a CDK1

{"smi": "CCc1cccc(CC)c1NC(=O)c1nn(C)c2c1CCc1cnc(Nc3ccc(C(=O)NC4CCN(C)CC4)cc3OC(F)(F)F)nc1-2", "IC50": "> 10 µM"}

---

Target: Myosin light chain kinase family member 4 (Homo sapiens)
Test: Selectivity interaction (NanoBRET assay (HEK293T cells)) EUB0001550a MYLK4
Assay type: cell-based, HEK-293T
pIC50: −log10 of the molar value.
property: pIC50

{"smi": "CN(C)CC#Cc1ccc2[nH]c3c(c2c1)-c1nc(N)ncc1CCC3", "test_system": "Myosin light chain kinase family member 4 (Homo sapiens)", "property": "pIC50", "test_value": 6.57}

---

Target: Protein arginine N-methyltransferase 3 (Homo sapiens, UniProt O60678)
Test: Selectivity interaction (Scintillation proximity assays) EUB0000230b PRMT3

{"smi": "CNCCN1CCC(c2cc(CN(C)C(=O)c3cccc(Oc4ccccc4)c3)ccn2)CC1", "test_system": "Protein arginine N-methyltransferase 3 (Homo sapiens, UniProt O60678)", "IC50": "> 10 µM"}

---

Biological target: UniProt:Q9UQ88
Sequence (Q9UQ88 whole entry): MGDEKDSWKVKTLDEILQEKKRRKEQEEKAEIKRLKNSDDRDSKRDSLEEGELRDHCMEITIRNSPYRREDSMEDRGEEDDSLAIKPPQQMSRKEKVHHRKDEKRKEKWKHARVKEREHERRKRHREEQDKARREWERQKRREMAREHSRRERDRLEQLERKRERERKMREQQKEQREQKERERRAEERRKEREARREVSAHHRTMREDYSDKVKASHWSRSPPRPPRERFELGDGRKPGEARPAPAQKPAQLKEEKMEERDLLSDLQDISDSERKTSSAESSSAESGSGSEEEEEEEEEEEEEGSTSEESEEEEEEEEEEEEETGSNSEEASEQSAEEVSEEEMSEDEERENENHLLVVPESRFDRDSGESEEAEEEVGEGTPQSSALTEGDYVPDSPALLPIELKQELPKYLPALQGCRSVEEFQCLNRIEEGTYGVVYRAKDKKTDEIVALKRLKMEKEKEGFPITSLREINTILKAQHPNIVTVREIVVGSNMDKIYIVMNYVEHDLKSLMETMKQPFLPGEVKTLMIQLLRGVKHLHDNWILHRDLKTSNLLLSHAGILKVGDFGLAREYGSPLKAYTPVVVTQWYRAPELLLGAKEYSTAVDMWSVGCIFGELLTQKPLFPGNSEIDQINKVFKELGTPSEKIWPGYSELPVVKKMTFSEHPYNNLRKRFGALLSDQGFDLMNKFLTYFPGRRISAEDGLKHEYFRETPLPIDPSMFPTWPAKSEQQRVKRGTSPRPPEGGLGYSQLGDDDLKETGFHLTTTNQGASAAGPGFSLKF
Assay: Selectivity interaction (TR-FRET binding assay) EUB0000644a CDK11A
pIC50: −log10 of the molar value.

{"smi": "CC[C@@H]1CN(C(=O)NCC(F)(F)F)C[C@@H]1c1cnc2cnc3[nH]ccc3n12", "test_system": "UniProt:Q9UQ88", "pIC50": "< 5.00"}

---

Target: UniProtKB P00533
Sequence (P00533 whole entry): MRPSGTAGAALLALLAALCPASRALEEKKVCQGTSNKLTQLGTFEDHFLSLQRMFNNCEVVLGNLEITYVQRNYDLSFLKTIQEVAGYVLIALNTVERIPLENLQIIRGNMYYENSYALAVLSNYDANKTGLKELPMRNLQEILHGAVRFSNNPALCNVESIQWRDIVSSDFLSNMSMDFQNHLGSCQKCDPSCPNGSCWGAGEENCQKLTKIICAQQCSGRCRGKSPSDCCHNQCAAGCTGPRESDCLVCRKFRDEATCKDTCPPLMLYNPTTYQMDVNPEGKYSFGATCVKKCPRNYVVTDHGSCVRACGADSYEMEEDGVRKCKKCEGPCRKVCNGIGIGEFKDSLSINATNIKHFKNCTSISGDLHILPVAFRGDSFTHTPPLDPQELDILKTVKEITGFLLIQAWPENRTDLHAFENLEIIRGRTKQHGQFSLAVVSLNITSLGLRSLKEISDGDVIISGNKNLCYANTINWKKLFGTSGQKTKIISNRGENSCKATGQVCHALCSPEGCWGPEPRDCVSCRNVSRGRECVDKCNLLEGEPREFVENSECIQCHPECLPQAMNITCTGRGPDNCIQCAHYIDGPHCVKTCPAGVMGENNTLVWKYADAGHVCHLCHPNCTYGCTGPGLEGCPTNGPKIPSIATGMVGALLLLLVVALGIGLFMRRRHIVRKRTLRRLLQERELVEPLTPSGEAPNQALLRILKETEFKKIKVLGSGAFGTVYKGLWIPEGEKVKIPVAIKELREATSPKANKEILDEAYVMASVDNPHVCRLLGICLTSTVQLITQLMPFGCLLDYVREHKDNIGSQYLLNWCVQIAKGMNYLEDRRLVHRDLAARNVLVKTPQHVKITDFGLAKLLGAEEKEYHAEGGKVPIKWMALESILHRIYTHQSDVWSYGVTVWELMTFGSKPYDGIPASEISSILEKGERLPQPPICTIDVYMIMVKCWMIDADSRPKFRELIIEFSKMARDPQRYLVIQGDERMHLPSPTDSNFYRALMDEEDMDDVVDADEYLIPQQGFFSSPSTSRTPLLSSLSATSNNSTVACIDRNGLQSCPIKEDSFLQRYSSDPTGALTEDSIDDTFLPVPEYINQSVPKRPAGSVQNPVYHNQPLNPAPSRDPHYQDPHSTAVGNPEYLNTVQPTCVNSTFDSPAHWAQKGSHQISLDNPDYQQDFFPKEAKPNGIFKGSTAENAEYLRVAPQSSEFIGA
Assay: Selectivity interaction (Radiometric kinase assay (using 10 uM ATP)) EUB0000601a EGFR
pIC50: −log10 of the molar value.

{"smi": "CCc1cc(Nc2nccc(-c3c(-c4ccc(OC)c(C(=O)Nc5c(F)cccc5F)c4)nc4ccccn34)n2)c(OC)cc1N1CCC(N2CCN(S(C)(=O)=O)CC2)CC1", "pIC50": "< 5.00"}

---

Target: 5-hydroxytryptamine receptor 1A (Homo sapiens)
Experiment: Selectivity interaction (Serotonin 5HT1A Calcium flux assay, agonist and antagonist mode ) EUB0000877a HTR1A

{"smi": "CCC(=O)N1CC[C@H](Nc2ncnc3c2CN(c2cnc(OC)c(C(F)(F)F)c2)CC3)C1", "IC50": "> 30 µM"}

---

Molecular target: Tyrosine-protein kinase JAK1 (Homo sapiens, UniProt P23458)
Assay: Selectivity interaction (NanoBRET assay (HEK293T cells)) EUB0001559a JAK1
Assay type: cell-based, HEK-293T

{"smi": "CN(C(=O)c1cnn2cccnc12)c1cc2c(cc1N1CCOCC1)C(=O)N(C[C@@H](F)C(C)(C)O)C2", "EC50": "> 50 µM"}

---

Molecular target: Dual specificity protein kinase CLK4 (Homo sapiens)

{"smi": "CN(c1ncccc1CNc1ccnc(-c2nc3c(F)c(Cl)ccc3[nH]2)n1)S(C)(=O)=O", "IC50": "> 10 µM"}

---

Target: Cyclin-dependent kinase 4/cyclin D1 (Homo sapiens, UniProt P11802)
Sequence (P11802 whole entry): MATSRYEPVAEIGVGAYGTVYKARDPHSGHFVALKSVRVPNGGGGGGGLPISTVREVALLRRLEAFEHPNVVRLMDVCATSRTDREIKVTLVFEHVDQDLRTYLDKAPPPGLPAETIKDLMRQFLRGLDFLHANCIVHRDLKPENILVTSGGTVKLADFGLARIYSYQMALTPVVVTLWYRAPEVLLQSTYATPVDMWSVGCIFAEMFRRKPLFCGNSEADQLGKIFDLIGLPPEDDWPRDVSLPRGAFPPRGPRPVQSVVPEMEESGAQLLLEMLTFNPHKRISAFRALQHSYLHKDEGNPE
Sequence (P24385 whole entry, further chain): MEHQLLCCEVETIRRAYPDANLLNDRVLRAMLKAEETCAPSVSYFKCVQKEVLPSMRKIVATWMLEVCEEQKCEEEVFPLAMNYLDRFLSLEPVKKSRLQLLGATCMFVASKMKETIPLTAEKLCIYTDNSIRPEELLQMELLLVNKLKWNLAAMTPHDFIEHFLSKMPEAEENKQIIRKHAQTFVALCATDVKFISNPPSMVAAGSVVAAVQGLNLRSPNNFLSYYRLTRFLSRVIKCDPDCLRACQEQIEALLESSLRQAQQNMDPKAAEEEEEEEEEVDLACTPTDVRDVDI
pIC50: −log10 of the molar value.

{"smi": "CCc1cccc(CC)c1NC(=O)c1nn(C)c2c1CCc1cnc(Nc3ccc(C(=O)NC4CCN(C)CC4)cc3OC(F)(F)F)nc1-2", "test_system": "Cyclin-dependent kinase 4/cyclin D1 (Homo sapiens, UniProt P11802)", "pIC50": "< 5.00"}

---

Target: UniProtKB P04626
Assay: Selectivity interaction (Radiometric kinase assay (using 10 uM ATP)) EUB0000601a ERBB2
pIC50: −log10 of the molar value.
property: pIC50

{"smi": "CCc1cc(Nc2nccc(-c3c(-c4ccc(OC)c(C(=O)Nc5c(F)cccc5F)c4)nc4ccccn34)n2)c(OC)cc1N1CCC(N2CCN(S(C)(=O)=O)CC2)CC1", "test_system": "UniProtKB P04626", "test_value": "< 5.00"}

---

Biological target: 3',5'-cyclic-AMP phosphodiesterase 4A (Homo sapiens, UniProt P27815)
Test: Selectivity interaction (Enzyme panel (AstraZeneca, AlphaScreen, functional assay)) EUB0000621a PDE4A
property: IC50 (µM)

{"compound": "Cc1cc([C@@H](C)Nc2ccccc2C(=O)O)c2nc(N3CCOCC3)cc(=O)n2c1 [AZD-6482]", "test_system": "3',5'-cyclic-AMP phosphodiesterase 4A (Homo sapiens, UniProt P27815)", "test_value": 17}

---

Molecular target: Myosin light chain kinase, smooth muscle (Homo sapiens)
Assay: Selectivity interaction (Kinase panel (Invitrogen, enzymatic assay)) EUB0000162b MYLK

{"smi": "CN(C)C(=O)Cn1cc(-c2ccc(-c3cncc4ccccc34)cc2)cn1", "IC50": "531 nM"}

---

Biological target: Tyrosine-protein kinase ABL1 (Homo sapiens, UniProt P00519)
Sequence (P00519 whole entry): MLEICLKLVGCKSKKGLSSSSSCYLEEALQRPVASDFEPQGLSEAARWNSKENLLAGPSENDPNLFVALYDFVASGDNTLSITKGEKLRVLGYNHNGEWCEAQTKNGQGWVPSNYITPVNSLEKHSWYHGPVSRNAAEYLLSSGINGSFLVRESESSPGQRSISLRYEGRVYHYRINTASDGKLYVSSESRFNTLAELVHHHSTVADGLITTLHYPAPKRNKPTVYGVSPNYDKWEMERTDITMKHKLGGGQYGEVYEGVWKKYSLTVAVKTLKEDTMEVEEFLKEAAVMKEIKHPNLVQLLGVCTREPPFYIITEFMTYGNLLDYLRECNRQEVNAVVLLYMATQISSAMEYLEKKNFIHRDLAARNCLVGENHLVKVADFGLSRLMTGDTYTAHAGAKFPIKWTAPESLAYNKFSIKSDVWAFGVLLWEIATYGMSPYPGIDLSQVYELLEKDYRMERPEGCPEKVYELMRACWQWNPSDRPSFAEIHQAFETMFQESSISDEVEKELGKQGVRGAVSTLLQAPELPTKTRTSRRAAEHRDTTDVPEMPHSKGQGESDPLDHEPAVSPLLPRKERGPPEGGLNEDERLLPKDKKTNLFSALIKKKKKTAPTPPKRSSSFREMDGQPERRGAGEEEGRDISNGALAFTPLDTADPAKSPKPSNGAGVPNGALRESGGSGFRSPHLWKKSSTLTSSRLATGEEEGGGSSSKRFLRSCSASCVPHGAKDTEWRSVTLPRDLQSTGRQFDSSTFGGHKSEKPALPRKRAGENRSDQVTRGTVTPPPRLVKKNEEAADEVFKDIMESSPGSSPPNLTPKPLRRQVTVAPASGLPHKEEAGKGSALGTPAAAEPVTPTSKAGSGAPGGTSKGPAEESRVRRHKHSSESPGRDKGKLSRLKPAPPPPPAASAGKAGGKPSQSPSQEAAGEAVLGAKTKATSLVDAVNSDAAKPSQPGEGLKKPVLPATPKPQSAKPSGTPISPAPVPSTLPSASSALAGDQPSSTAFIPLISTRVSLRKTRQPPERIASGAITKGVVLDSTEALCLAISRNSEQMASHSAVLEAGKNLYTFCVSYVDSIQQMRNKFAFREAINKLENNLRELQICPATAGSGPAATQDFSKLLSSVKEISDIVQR
Assay: Selectivity interaction (TR-FRET binding assay) EUB0000644a ABL1
pIC50: −log10 of the molar value.
property: pIC50

{"smi": "CC[C@@H]1CN(C(=O)NCC(F)(F)F)C[C@@H]1c1cnc2cnc3[nH]ccc3n12", "test_value": "< 5.00"}

---

Molecular target: Mitogen-activated protein kinase kinase kinase 7 (Homo sapiens)
Assay: Selectivity interaction (Kinase panel (Invitrogen, enzymatic assay)) EUB0000623aCl MAP3K7

{"smi": "CC(C)(C)c1ccc(C(=O)Nc2cn3cc(-n4ccnc4)ccc3n2)cc1", "test_system": "Mitogen-activated protein kinase kinase kinase 7 (Homo sapiens)", "IC50": "> 10 µM"}

---

Target: UniProtKB P43405
Test: Selectivity interaction (Kinase panel (33PanQinase(R) Activity Assay)) EUB0000877a SYK
pIC50: −log10 of the molar value.
property: pIC50

{"smi": "CCC(=O)N1CC[C@H](Nc2ncnc3c2CN(c2cnc(OC)c(C(F)(F)F)c2)CC3)C1", "test_value": "< 5.00"}

---

Target: Dual specificity tyrosine-phosphorylation-regulated kinase 2 (Homo sapiens)
Test: Selectivity interaction (Radioactive assay (Reaction Biology)) EUB0001046a DYRK2

{"smi": "CN(c1ncccc1CNc1ccnc(-c2cc3cc(Cl)ccc3[nH]2)n1)S(C)(=O)=O", "IC50": "> 10 µM"}

---

Target: Receptor tyrosine-protein kinase erbB-2 (Homo sapiens)
Sequence (P04626 whole entry): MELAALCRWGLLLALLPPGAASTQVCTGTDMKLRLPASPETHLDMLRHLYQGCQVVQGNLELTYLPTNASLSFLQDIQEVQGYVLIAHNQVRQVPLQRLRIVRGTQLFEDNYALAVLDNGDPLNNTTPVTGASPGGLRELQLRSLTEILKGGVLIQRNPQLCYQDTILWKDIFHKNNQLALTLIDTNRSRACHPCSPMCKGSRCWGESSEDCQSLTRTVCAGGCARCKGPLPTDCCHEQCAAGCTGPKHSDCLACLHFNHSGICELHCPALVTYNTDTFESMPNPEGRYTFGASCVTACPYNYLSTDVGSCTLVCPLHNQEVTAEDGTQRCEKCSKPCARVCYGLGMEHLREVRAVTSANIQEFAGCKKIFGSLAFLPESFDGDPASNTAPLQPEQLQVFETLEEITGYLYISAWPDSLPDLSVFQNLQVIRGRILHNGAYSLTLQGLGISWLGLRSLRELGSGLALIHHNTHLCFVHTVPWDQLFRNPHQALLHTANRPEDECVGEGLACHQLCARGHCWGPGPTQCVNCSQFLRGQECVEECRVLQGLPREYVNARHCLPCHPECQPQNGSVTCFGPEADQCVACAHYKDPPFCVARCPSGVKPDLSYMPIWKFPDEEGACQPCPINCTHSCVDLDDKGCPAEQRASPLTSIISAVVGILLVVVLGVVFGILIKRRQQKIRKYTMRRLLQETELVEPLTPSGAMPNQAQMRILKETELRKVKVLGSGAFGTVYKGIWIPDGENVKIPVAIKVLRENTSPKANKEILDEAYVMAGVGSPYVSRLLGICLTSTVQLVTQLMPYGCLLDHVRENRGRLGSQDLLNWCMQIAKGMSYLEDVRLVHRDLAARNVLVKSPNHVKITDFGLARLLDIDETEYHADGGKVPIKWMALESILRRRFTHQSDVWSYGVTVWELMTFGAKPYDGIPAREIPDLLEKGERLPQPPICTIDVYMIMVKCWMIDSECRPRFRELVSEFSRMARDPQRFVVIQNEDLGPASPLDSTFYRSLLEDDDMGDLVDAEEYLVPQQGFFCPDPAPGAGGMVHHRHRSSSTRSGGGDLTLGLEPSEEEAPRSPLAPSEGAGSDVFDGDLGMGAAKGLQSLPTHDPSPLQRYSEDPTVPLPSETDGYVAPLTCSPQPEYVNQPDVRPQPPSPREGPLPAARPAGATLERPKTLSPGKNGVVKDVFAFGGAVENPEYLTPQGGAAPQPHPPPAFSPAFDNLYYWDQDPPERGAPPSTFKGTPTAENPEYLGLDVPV
Experiment: Selectivity interaction (Kinase panel (33PanQinase(R) Activity Assay)) EUB0000877a ERBB2

{"smi": "CCC(=O)N1CC[C@H](Nc2ncnc3c2CN(c2cnc(OC)c(C(F)(F)F)c2)CC3)C1", "IC50": "> 10 µM"}
